ASSAY TARGET: hSERT (Homo sapiens, UniProt P31645)
Sequence (P31645 whole entry): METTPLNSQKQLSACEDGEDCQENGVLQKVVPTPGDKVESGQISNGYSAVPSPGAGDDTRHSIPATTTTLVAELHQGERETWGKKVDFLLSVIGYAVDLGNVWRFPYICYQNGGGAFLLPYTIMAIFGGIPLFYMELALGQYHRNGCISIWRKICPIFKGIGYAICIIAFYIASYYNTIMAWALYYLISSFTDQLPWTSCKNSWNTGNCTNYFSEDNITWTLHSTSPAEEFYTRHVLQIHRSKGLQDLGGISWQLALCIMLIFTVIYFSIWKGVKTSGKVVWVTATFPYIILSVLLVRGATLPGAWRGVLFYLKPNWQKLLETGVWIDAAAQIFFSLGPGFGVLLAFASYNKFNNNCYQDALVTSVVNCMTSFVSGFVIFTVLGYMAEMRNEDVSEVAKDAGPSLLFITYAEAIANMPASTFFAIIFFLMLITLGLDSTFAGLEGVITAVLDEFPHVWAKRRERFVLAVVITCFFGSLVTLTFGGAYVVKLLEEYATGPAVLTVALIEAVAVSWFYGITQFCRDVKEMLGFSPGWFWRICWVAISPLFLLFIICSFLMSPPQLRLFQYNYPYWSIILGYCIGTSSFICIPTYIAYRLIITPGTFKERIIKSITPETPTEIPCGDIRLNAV
ASSAY EXPLANATION: fluorescence-based serotonin reuptake inhibition assay (Tsuruda et al. 2010; data indicated by an asterisk)
Format: cell-based
Design: expressed in transfected cells; host or cells: HEK-293
COND: fluorescence-based assay (values with asterisk), read-out: SERT pIC50 (converted)
READOUT KIND: IC50

>>> recorded_result("CC(C)[C@H](Oc1cccc(Cl)c1Cl)[C@@H]1CCNC1 [Example 6-16]")
"≤ 100 nM"

Which IC50 is reported with hSERT (Homo sapiens, UniProt P31645) for this entry: CCC[C@H](Oc1ccc(Cl)c(Cl)c1F)[C@H]1CCNC1 [Example 4-52] ? ≤ 10 nM

Which IC50 is reported with hSERT (Homo sapiens, UniProt P31645) for this entry: CC(C)C[C@@H](Oc1cccc(Cl)c1C(F)(F)F)[C@H]1CCNC1 [Example 10-34] ? ≤ 10 nM

Which IC50 is reported with hSERT (Homo sapiens, UniProt P31645) for this entry: CC[C@H](Oc1cc(F)cc(Cl)c1)[C@H]1CCNC1 [Example 2-10] ? ≤ 100 nM

Which IC50 is reported with hSERT (Homo sapiens, UniProt P31645) for this entry: CC(C)C[C@H](Oc1cc(Cl)ccc1Cl)[C@H]1CCNC1 [Example 10-51] ? ≤ 10 nM

Which IC50 is reported with hSERT (Homo sapiens, UniProt P31645) for this entry: Fc1c(Cl)ccc(O[C@H](C2CC2)[C@H]2CCNC2)c1F [Example 16-49] ? ≤ 10 nM

Which IC50 is reported with hSERT (Homo sapiens, UniProt P31645) for this entry: CC[C@@H](Oc1ccc(Cl)cc1Cl)[C@H]1CCNC1 [Example 2-34] ? ≤ 10 nM

Which IC50 is reported with hSERT (Homo sapiens, UniProt P31645) for this entry: CC(C)[C@@H](Oc1cccc2ccccc12)[C@@H]1CCNC1 [Example 14-7] ? ≤ 10 nM

Which IC50 is reported with hSERT (Homo sapiens, UniProt P31645) for this entry: Cc1c(Cl)cccc1O[C@@H](CC(C)C)[C@@H]1CCNC1 [Example 10-32] ? ≤ 10 nM
